- System: dengue virus type 2
- testSummary: Inhibition of Dengue virus serotype 2 His-tagged NS2B-NS3 protease expressed in Escherichia coli BL21(DE3) at 50 uM using Abz-Nle-Lys-Arg-Arg-Ser-3-(NO2)Tyr as substrate preincubated for 15 mins followed by substrate addition measured for 15 mins by fluorescence assay relative to control
Where a SMILES comes first, the peptide text is derived from it. [ ]: non-standard residue; d: D form. The star is where a group is joined. Phe(4-CH2NH2) = NCc1ccc(C[C@H](N)C(=O)O)cc1; Phe(4-NH2) = Nc1ccc(C[C@H](N)C(=O)O)cc1; Bz = O=C(c1ccccc1)*
measurementLabel: inhibition (%)

Below, 4 compounds whose answers are already recorded.
>>> reportedvalue("N=C(N)NCCC[C@H](NC(=O)[C@@H](NC(=O)c1ccccc1)c1cccc(NC(=N)N)c1)C(N)=O")
9.8
>>> reportedvalue("N=C(N)NCCC[C@H](NC(=O)c1ccccc1)B(O)O")
51.9
>>> reportedvalue("N=C(N)NCCC[C@H](NC(=O)[C@H](Cc1ccc(CN)cc1)NC(=O)c1ccccc1)C(N)=O (Bz-[Phe(4-CH2NH2)]-Arg-NH2)")
6.6
>>> reportedvalue("N=C(N)NCCC[C@H](NC(=O)c1ccccc1)C(N)=O")
9.7

[1] NCCC[C@H](NC(=O)c1ccccc1)B(O)O
[2] N=C(N)NCCC[C@H](NC(=O)[C@H](Cc1ccc(N)cc1)NC(=O)c1ccccc1)C(N)=O (Bz-[Phe(4-NH2)]-Arg-NH2)
[3] NCCC[C@H](NC(=O)c1ccccc1)C(N)=O
Could you please order the items by inhibition, going from the lowest number to the highest? I'd appreciate it if you listed the labels in the requested order.
3, 2, 1
(3: 2%, 2: 5.2%, 1: 8.3%)

Each recorded value in this set is attributed to ChEMBL document CHEMBL3877304.
